Each item that follows carries a reported GI50.
Tested on: UACC-257
Assay Name: NCI tumour cell line growth inhibition, 48 h
The source made the active and inactive calls. Rule as the data show it: active = GI50 up to about 1.1 µM and inactive = higher.

Reference set, count: 9
# Compound, GI50
data = [
    ("CC1(C)C(=O)/C=C\\C(=O)C(C)(C)C(=O)/C=C\\C(=O)C(C)(C)C2=CC=C(O2)C(C)(C)C(=O)/C=C\\C1=O", "5.71 µM (inactive)"),
    ("NS(=O)(=O)c1ccccc1C(=O)N/N=C(\\c1nc2ccc([N+](=O)[O-])cc2[nH]c1=O)C(O)c1ccc([N+](=O)[O-])cc1 (stereo not given)", "> 100 µM (inactive)"),
    ("Cc1c2c(cc[n+]1C)O[B-](c1ccccc1)(c1ccccc1)O2", "55.5 µM (inactive)"),
    ("CC1(C)C(=NNC(=O)C[N+](C)(C)C)C(C)(C)C1=NNC(=O)C[N+](C)(C)C", "> 100 µM (inactive)"),
    ("CC(=O)OCCC(O[Si](c1ccccc1)(c1ccccc1)C(C)(C)C)C(C)(C)O (stereo not given)", "26.5 µM (inactive)"),
    ("Cn1c(=O)c2c3ccccc3n(C)c2n(C)c1=O", "> 100 µM (inactive)"),
    ("CCN(CC)CC[S+]([O-])c1c2cc(OC)ccc2nc2ccc(OC)cc12 (stereo not given)", "5.08 µM (inactive)"),
    ("COc1ccccc1NC(=S)Nc1cc(C)ccn1", "> 100 µM (inactive)"),
    ("CCOC(=O)C(NC(=O)Nc1ccc(C)cc1)(OCC)C(F)(F)F (stereo not given)", "> 100 µM (inactive)"),
]

Measured GI50, COc1ccc(/N=N/C(=NNC(=O)c2ccc(C)cc2)c2ccc(N(C)C)cc2)cc1 : 33.3 µM (inactive)
